- System: IL-1β release
- experiment: IL-1β release assay (PMA-differentiated THP-1 cells, LPS + nigericin, cleaved IL-1β by JESS)
- Assay type: cell-based
- test parameters: Homo sapiens; Table 2a; THP-1 cells, LPS + nigericin; read-out: II-1β release IC50
Catalogue of IC50 values
quantity kind: IC50

CC(C)(C)c1cc(NC(=O)Nc2ccc(-c3nn(C4CC4)c4ccnc(N)c34)cc2F)on1 : < 150 nM
CC1(c2cc(NC(=O)Nc3ccc(-c4nn(C5CC5)c5ncnc(N)c45)cc3F)on2)CC1 : 151 to 300 nM
CC(C)(C)c1cc(NC(=O)Nc2ccc(-c3nn(C4COC4)c4ncnc(N)c34)cc2F)on1 : < 150 nM
Nc1ncnc2c1c(-c1ccc(NC(=O)Nc3cc(C4(C(F)(F)F)CC4)no3)c(F)c1)nn2C1CC1 : < 150 nM
CC(C)(C)c1cc(NC(=O)Nc2ccc(-c3nn(C4CCN(C5COC5)CC4)c4ncnc(N)c34)cc2F)on1 : < 150 nM
CC(C)(C)c1nnc(NC(=O)Nc2ccc(-c3nn(C4CC4)c4ncnc(N)c34)cc2F)s1 : 301 to 500 nM
Nc1ncnc2c1c(-c1ccc(NC(=O)Nc3cc(C4(C(F)(F)F)CC4)on3)c(F)c1)nn2C1CC1 : < 150 nM
Nc1nccc2c1c(-c1ccc(NC(=O)Nc3cc(C4(C(F)(F)F)CC4)no3)c(F)c1)nn2C1CC1 : 151 to 300 nM
CC(C)(C)c1cc(NC(=O)Nc2ccc(-c3nn(C4CC4)c4ncnc(N)c34)cc2F)on1 : < 150 nM

---

- measured target: full-length recombinant human NEK7 (Homo sapiens, UniProt Q8TDX7)
- Construct: full-length recombinant human NEK7; GST (N); purchased SignalChem N09-10G; host or cells: Sf9 insect cells (baculovirus)
- Sequence (Q8TDX7 whole entry): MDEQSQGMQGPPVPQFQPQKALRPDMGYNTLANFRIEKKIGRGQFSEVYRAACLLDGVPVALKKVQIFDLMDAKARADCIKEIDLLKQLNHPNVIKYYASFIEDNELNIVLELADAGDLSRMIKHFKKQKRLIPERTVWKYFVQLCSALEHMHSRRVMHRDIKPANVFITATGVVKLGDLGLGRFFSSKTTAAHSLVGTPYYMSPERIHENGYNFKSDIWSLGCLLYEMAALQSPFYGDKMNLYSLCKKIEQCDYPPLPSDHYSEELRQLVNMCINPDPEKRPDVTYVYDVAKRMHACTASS
- experiment: NEK7 enzymatic assay ([33P]-ATP, casein substrate)
- Assay type: biochemical
- test parameters: Table 2b; recombinant human NEK7, casein substrate
quantity kind: IC50

CC(C)(C)c1cc(NC(=O)NC2CCC(Oc3ccnc4[nH]cc(Cl)c34)CC2)n(-c2ccccc2)n1 (stereo not drawn) [Ib-20] : > 1500 nM
O=C(Nc1ccc(Oc2ccnc3[nH]cc(Cl)c23)cc1F)Nc1cc(C2CC2)nn1-c1ccccc1 [Ib-11] : 501 to 1500 nM
Cc1cc2c(Oc3ccc(NC(=O)Nc4cc(C(C)(C)C)nn4-c4ccccc4)c(F)c3)ccnc2[nH]1 [Ib-5] : > 1500 nM
CC(C)(C)c1cc(NC(=O)Nc2ccc(Oc3ccnc4[nH]ccc34)cc2F)n(-c2ccccc2)n1 [Ib-1] : > 1500 nM
CC(C)(C)c1cc(NC(=O)Nc2ccc(Oc3ccnc4[nH]ccc34)c(C(F)(F)F)c2)n(-c2ccccc2)n1 [Ib-2] : > 1500 nM
CC(C)(C)c1cc(NC(=O)Nc2c(F)cc(Oc3ccnc4[nH]cc(Cl)c34)cc2F)n(-c2ccccc2)n1 [Ib-8] : > 1500 nM

---

- measured target: full-length recombinant human NEK7 (Homo sapiens)
- Construct: full-length recombinant human NEK7; GST (N); purchased SignalChem N09-10G; host or cells: Sf9 insect cells (baculovirus)
- experiment: NEK7 enzymatic assay ([33P]-ATP, casein substrate)
- Format: biochemical
- test parameters: Table 2d; recombinant human NEK7, casein substrate
Recorded IC50, one value per entry.
quantity kind: IC50

COc1cc(NC(=O)Nc2ccc(-c3cn(C4CC4)c4ncnc(N)c34)cc2F)ccc1CN1CCN(C)CC1 [Id-37] : > 1500 nM
CN1CC2CC1CN2Cc1ccc(NC(=O)Nc2ccc(-c3cn(C4CC4)c4ncnc(N)c34)cc2F)cc1C(F)(F)F (stereo not shown) [Id-63] : < 150 nM
CN(C)C1CCN(Cc2ccc(NC(=O)Nc3ccc(-c4cn(C5CC5)c5ncnc(N)c45)cc3F)cc2C(F)(F)F)CC1 [Id-68] : < 150 nM
Nc1ncnc2c1c(-c1ccc(NC(=O)Nc3ccc(CN4CCNCC45CC5)c(C(F)(F)F)c3)c(F)c1)cn2C1CC1 [Id-65] : < 150 nM
CN1CCN(Cc2ccc(NC(=O)Nc3ccc(-c4cn(C5CC5)c5ncnc(N)c45)cc3F)cc2C(F)(F)F)CC1 [Id-33] : < 150 nM
Cc1cn(-c2ccc(NC(=O)Nc3ccc(-c4cn(C5CC5)c5ncnc(N)c45)cc3F)cc2C(F)(F)F)cn1 [Id-45] : 501 to 1500 nM
CN1CCN(Cc2ccc(NC(=O)Nc3ccc(-c4cn(CCO)c5ncnc(N)c45)cc3F)cc2C(F)(F)F)CC1 [Id-70] : < 150 nM

---

- measured target: full-length recombinant human NEK7 (Homo sapiens, UniProt Q8TDX7)
- Construct: full-length recombinant human NEK7; GST (N); purchased SignalChem N09-10G; host or cells: Sf9 insect cells (baculovirus)
- experiment: NEK7 enzymatic assay ([33P]-ATP, casein substrate)
- Format: biochemical
- test parameters: comparative compounds of Structure (II)
molecules and their reported IC50
quantity kind: IC50

Nc1ncnc2c1c(-c1ccc3c(c1Cl)CCN3C(=O)Cc1ccc(F)c(C(F)(F)F)c1)nn2C1COC1 [II-10] : 151 to 300 nM
Cc1ccc(CC(=O)N2CCc3c2ccc(-c2nn(C(C)C)c4ncnc(N)c24)c3F)cc1C(F)(F)F [II-5] : 301 to 500 nM
Nc1ncnc2c1c(-c1ccc3c(c1F)CCN3C(=O)Cc1cc(C(F)(F)F)ccc1F)cn2C1CC1 [II-17] : < 150 nM
Cc1c(CC(=O)N2CCc3c2ccc(-c2nn(C(C)C)c4ncnc(N)c24)c3F)cccc1C(F)(F)F [II-6] : > 1500 nM
CC(C)n1nc(-c2ccc3c(c2F)CCN3C(=O)Cc2cc(C(F)(F)F)ccc2F)c2c(N)ncnc21 [II-11] : < 150 nM
Nc1ncnc2c1c(-c1ccc3c(c1F)CCN3C(=O)Cc1cc(C(F)(F)F)ccc1F)nn2C1COC1 [II-12] : < 150 nM
Nc1ncnc2c1c(-c1ccc3c(c1F)CCN3C(=O)Cc1ccc(F)c(C(F)(F)F)c1)nn2C1COC1 [II-9] : 501 to 1500 nM
CC(C)n1nc(-c2ccc3c(c2F)CCN3C(=O)Cc2ccc(F)c(C(F)(F)F)c2)c2c(N)ncnc21 [II-2] : 151 to 300 nM

---

Listed here are molecules together with their documented IC50.
- measured target: full-length recombinant human NEK7 (Homo sapiens)
- Construct: full-length recombinant human NEK7; GST (N); purchased SignalChem N09-10G; host or cells: Sf9 insect cells (baculovirus)
- experiment: NEK7 enzymatic assay ([33P]-ATP, casein substrate)
- Format: biochemical
- test parameters: Table 2a; recombinant human NEK7, casein substrate
quantity kind: IC50

CC(C)(C)c1nnc(NC(=O)Nc2ccc(-c3nn(C4CC4)c4ncnc(N)c34)cc2F)o1 [Ia-36] : 501 to 1500 nM
CC(C)(O)Cn1nc(-c2ccc(NC(=O)Nc3cc(C(C)(C)C)no3)cc2)c2c(N)ncnc21 [Ia-9] : 301 to 500 nM
Nc1ncnc2c1c(-c1ccc(NC(=O)Nc3cc(C4(C(F)(F)F)CC4)no3)nc1)nn2C1COC1 [Ia-61] : 151 to 300 nM
Cn1nc(-c2ccc(NC(=O)Nc3cc(C(C)(C)C)no3)c(F)c2)c2c(N)ncnc21 [Ia-29] : < 150 nM
CC(C)(C)c1cc(NC(=O)Nc2ccc(-c3nn(C4CCN(C5COC5)CC4)c4ncnc(N)c34)cc2F)on1 [Ia-14] : < 150 nM
CC(C)(C)c1cc(NC(=O)Nc2ccc(-c3nn(C4COC4)c4ncnc(N)c34)cc2F)on1 [Ia-12] : < 150 nM
CC(C)n1nc(-c2ccc(NC(=O)Nc3cc(C(C)(C)C)no3)c(F)c2)c2c(N)ncnc21 [Ia-11] : < 150 nM
CC(C)(C)c1cc(NC(=O)Nc2ccc(-c3nn(C4CCC4)c4ncnc(N)c34)cc2F)on1 [Ia-8] : < 150 nM
Nc1ncnc2c1c(-c1ccc(NC(=O)Nc3cc(C4(C(F)(F)F)CC4)on3)c(F)c1)nn2C1CC1 [Ia-25] : < 150 nM
CC(C)c1cc(NC(=O)Nc2ccc(-c3nn(C4CC4)c4ncnc(N)c34)cc2F)on1 [Ia-41] : 301 to 500 nM
CC(C)(C)c1cc(NC(=O)Nc2ccc(-c3nn(C4CCC4)c4ncnc(N)c34)cc2)on1 [Ia-7] : 151 to 300 nM
Nc1nccc2c1c(-c1ccc(NC(=O)Nc3cc(C4(C(F)(F)F)CC4)no3)c(F)c1)nn2C1CC1 [Ia-45] : 151 to 300 nM
CC1(c2cc(NC(=O)Nc3ccc(-c4nn(C5CC5)c5ncnc(N)c45)cc3F)on2)CCC1 [Ia-44] : 151 to 300 nM
CCc1cc(NC(=O)Nc2ccc(-c3nn(C4CC4)c4ncnc(N)c34)cc2F)on1 [Ia-42] : < 150 nM
CC(C)(C)c1cc(NC(=O)Nc2ccc(-c3nn(C4CC4)c4ncnc(N)c34)cc2F)on1 [Ia-13] : < 150 nM
CC(C)n1nc(-c2ccc(NC(=O)Nc3cc(C(C)(C)C)no3)cc2)c2c(N)ncnc21 [Ia-1] : 301 to 500 nM
Cc1cc(-c2nn(C3CC3)c3ncnc(N)c23)ccc1NC(=O)Nc1cc(C2(C(F)(F)F)CC2)no1 [Ia-48] : 301 to 500 nM

Ref: patent US20230210853A1
